- tgt: hERG (Homo sapiens, UniProt Q12809)
- Sequence (Q12809 whole entry): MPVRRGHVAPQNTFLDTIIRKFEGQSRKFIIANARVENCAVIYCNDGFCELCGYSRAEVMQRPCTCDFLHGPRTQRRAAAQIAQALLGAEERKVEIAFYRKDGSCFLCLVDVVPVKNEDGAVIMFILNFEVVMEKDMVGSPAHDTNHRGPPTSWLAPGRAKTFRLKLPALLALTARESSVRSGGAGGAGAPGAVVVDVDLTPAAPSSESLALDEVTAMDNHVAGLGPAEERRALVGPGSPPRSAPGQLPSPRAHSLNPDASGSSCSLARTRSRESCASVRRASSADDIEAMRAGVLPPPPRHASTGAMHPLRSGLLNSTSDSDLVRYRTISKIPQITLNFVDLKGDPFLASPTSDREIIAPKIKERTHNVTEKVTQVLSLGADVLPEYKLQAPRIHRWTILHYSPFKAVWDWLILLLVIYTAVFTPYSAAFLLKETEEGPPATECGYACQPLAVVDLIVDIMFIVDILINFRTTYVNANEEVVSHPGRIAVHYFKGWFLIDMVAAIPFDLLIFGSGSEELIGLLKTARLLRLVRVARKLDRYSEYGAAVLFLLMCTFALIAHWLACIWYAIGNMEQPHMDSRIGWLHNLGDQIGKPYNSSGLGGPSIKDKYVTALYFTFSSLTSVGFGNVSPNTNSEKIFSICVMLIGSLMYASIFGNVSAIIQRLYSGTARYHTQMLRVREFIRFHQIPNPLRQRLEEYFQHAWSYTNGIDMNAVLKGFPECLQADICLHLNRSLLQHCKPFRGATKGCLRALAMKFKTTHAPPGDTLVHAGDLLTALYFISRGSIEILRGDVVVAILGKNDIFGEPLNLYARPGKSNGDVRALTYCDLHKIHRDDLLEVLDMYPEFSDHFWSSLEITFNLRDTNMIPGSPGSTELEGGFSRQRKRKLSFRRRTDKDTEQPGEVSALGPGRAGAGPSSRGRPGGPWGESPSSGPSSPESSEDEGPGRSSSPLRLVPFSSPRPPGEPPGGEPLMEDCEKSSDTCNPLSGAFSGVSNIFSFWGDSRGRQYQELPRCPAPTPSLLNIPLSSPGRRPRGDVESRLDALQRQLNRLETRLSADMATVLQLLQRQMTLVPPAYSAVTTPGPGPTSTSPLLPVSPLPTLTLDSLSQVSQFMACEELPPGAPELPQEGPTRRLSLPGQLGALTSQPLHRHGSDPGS
- experimental protocol: in vitro
- condition context: human
measurement kind: IC50 at 5 min

Looking up Cn1cnc2c(F)c(Nc3ccc(Br)cc3Cl)c(C(=O)NOCCO)cc21 [Reference-1, Selumetinib] , I found its IC50 at 5 min recorded as > 30 µM

###

- System: phospho-ERK in A549 (KRAS G12S) cells
- experimental protocol: Cell-based pERK (pERK:tERK) in A549 cells
- condition context: 10 nM, 2 h; phospho- to total protein ratio normalized to DMSO control (Table 9)
Quick rule for you: A549-pERK (10 nM, 2 h) at 60 or higher means Satisfied, lower means Not satisfied.

Input line: Is reported A549-pERK (10 nM, 2 h) greater than or equal to 60 here: "CNS(=O)(=O)Nc1cccc(Cc2c(CNCC(=O)O)c3cc(Cl)c(OC(=O)N(C)C)cc3oc2=O)c1F"
Output line: Satisfied

###

- experimental protocol: Hepatocyte stability, wistar hannover rat
- Type: in vitro ADME
- condition context: Wistar Hannover, rat, hepatocytes, 0.5 million cells/ml, read-out: CLint (L/hr/kg) (converted)
Structures can show the parent of a compound that is named as a salt.
The threshold is 3 L/h/kg. Values of CLint scaled at 2 μM beneath it are tagged t; values meeting or exceeding it are tagged f.

Input line: Is CLint scaled at 2 μM of CNS(=O)(=O)Nc1cccc(Cc2c(CN3CCNCC3)c3cc(Cl)c(OC(=O)N(C)C)cc3oc2=O)c1Cl [Compound 256, hydrochloride] strictly below 3 L/h/kg?
Output line: t

Input line: Is CLint scaled at 2 μM of CNS(=O)(=O)Nc1cccc(Cc2c(CN3CCNCC3)c3ccc(OC(=O)N(C)C)cc3oc2=O)c1Cl [Compound 246, hydrochloride] strictly below 3 L/h/kg?
Output line: t

Input line: Is CLint scaled at 2 μM of "CCN(C)Cc1c(Cc2cccc(NS(=O)(=O)NC)c2Cl)c(=O)oc2cc(OC(=O)N(C)C)ccc12" strictly below 3 L/h/kg?
Output line: f

Input line: Is CLint scaled at 2 μM of "CNS(=O)(=O)Nc1cccc(Cc2c(CN(C)C)c3ccc(OC(=O)N(C)C)cc3oc2=O)c1Cl" strictly below 3 L/h/kg?
Output line: t

---
Input line: Is CLint scaled at 2 μM of CCS(=O)(=O)Nc1cccc(Cc2c(CN3CCNCC3)c3cc(Cl)c(OC(=O)N(C)C)cc3oc2=O)c1Cl [Compound 257, hydrochloride] strictly below 3 L/h/kg?
Output line: t

Input line: Is CLint scaled at 2 μM of "CCN(C)Cc1c(Cc2cccc(NS(=O)(=O)NC)c2F)c(=O)oc2cc(OC(=O)N(C)C)c(F)cc12" strictly below 3 L/h/kg?
Output line: f

###

- experimental protocol: Mouse liver microsome stability (t1/2, Clint)
- condition context: mouse, liver microsomes, pH 7.4
Task for the reader: assign each of the following compounds its reported half-life at 1 μM.
One number for each entry, in min.

Looking up CNS(=O)(=O)Nc1nccc(Cc2c(C)c3ccc(Oc4ncccn4)cc3oc2=O)c1F [Reference-2, reference compound] , I found its half-life at 1 μM recorded as 18

Could you now consider this next compound?
Looking up Cn1cnc2c(F)c(Nc3ccc(Br)cc3Cl)c(C(=O)NOCCO)cc21 [Reference-1, Selumetinib] , I found its half-life at 1 μM recorded as 18

###

Task for the reader: assign each of the following molecules its reported efflux ratio at 2 h, 10 μM.
- experimental protocol: in vitro
- condition context: human, Caco-2, Mean Efflux Ratio
Give bare numbers.

Looking up CC(=O)CC(c1ccccc1)c1c(O)c2ccccc2oc1=O (centres unmarked) , I found its efflux ratio at 2 h, 10 μM recorded as 0.513

---
Looking up "CNC(=C[N+](=O)[O-])NCCSCc1ccc(CN(C)C)o1" , I found its efflux ratio at 2 h, 10 μM recorded as 2.89

###

- experimental protocol: Human liver microsome stability (t1/2, Clint)
- condition context: human, liver microsomes, pH 7.4
measurement kind: half-life at 1 μM

Looking up Cn1cnc2c(F)c(Nc3ccc(Br)cc3Cl)c(C(=O)NOCCO)cc21 [Reference-1, Selumetinib] , I found its half-life at 1 μM recorded as > 1.5 h

###

Task for the reader: assign each of the following molecules its reported pERK:tERK (10 nM 2 h A549).
- System: phospho-ERK in A549 (KRAS G12S) cells
- experimental protocol: Cell-based pERK (pERK:tERK) in A549 cells
- condition context: Phospho-ERK Screen in A549 (KRAS G12S); head 10 nM 2 h, title 10 μM for 2 hours
Structures can show the parent of a compound that is named as a salt.

Here is how some molecules turned out for pERK:tERK (10 nM 2 h A549).
Looking up CNS(=O)(=O)Nc1cccc(Cc2c(CN(C)C)c3ccc(OC(=O)N(C)C)cc3oc2=O)c1F [Compound 9] , I found its pERK:tERK (10 nM 2 h A549) recorded as 65 (n = 27)

Looking up CNS(=O)(=O)Nc1cccc(Cc2c(CN3CCNCC3)c3ccc(OC(=O)N(C)C)cc3oc2=O)c1Cl [Compound 246, hydrochloride] , I found its pERK:tERK (10 nM 2 h A549) recorded as 19

Looking up CNS(=O)(=O)Nc1cccc(Cc2c(CN(C)C)c3ccc(OC(=O)N(C)C)cc3oc2=O)c1Br [Compound 248] , I found its pERK:tERK (10 nM 2 h A549) recorded as 81

Looking up CCN(C)Cc1c(Cc2cccc(NS(=O)(=O)NC)c2F)c(=O)oc2cc(OC(=O)N(C)C)c(F)cc12 [Compound 261] , I found its pERK:tERK (10 nM 2 h A549) recorded as 68

Could you now consider this next molecule?
Looking up CNS(=O)(=O)Nc1cccc(Cc2c(CN(C)C)c3cc(F)c(OC(=O)N(C)C)cc3oc2=O)c1F [Compound 25] , I found its pERK:tERK (10 nM 2 h A549) recorded as 66 (n = 2)

###

- tgt: CYP3A4 (Homo sapiens)
- Sequence (P08684 whole entry): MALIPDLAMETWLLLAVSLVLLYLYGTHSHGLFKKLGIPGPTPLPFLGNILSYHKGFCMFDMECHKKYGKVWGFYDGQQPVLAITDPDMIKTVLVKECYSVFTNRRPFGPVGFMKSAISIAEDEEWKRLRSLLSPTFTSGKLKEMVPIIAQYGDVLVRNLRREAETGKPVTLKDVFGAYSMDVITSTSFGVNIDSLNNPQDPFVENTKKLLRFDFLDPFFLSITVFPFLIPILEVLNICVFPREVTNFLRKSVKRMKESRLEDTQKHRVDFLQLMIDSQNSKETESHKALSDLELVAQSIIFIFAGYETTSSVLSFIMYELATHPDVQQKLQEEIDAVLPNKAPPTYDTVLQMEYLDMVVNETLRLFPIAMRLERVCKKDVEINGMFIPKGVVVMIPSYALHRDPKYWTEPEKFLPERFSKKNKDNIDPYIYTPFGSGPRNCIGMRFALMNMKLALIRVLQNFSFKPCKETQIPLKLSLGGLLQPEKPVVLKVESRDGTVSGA
- experimental protocol: in vitro
- condition context: microsomes, pH 7.4
Counter-ions that a name gives are not always drawn.
measurement kind: inhibition at 30 min, 10 µM (%)
Numbers only, in %.

Here is how some compounds turned out for inhibition at 30 min, 10 µM.
The recorded inhibition at 30 min, 10 µM with CYP3A4 (Homo sapiens) for CNS(=O)(=O)Nc1cccc(Cc2c(CN3CCNCC3)c3ccc(OC(=O)N(C)C)cc3oc2=O)c1Cl [Compound 246, hydrochloride] was 16.2

The recorded inhibition at 30 min, 10 µM with CYP3A4 (Homo sapiens) for CCS(=O)(=O)Nc1cccc(Cc2c(CN3CCNCC3)c3cc(Cl)c(OC(=O)N(C)C)cc3oc2=O)c1Cl [Compound 257, hydrochloride] was 67.4

Could you now consider this next compound?
The recorded inhibition at 30 min, 10 µM with CYP3A4 (Homo sapiens) for CNS(=O)(=O)Nc1cccc(Cc2c(CN3CCNCC3)c3cc(Cl)c(OC(=O)N(C)C)cc3oc2=O)c1Cl [Compound 256, hydrochloride] was 61.8

###

- experimental protocol: Mouse pharmacokinetics (oral cassette dosing), plasma
- Format: in vivo
- condition context: female, mouse, BALB/c immunocompetent mice, 5 mg/kg p.o., read-out: AUC0-t
Counter-ions that a name gives are not always drawn.
measurement kind: AUC(0-t) (ng·h/mL)
Numbers only, in ng·h/mL.

Here is how some molecules turned out for AUC(0-t).
Looking up CNS(=O)(=O)Nc1cccc(Cc2c(CN(C)CCF)c3ccc(OC(=O)N(C)C)cc3oc2=O)c1F [Compound 240] , I found its AUC(0-t) recorded as 290

Looking up CNS(=O)(=O)Nc1cccc(Cc2c(CN(C)C)c3ccc(OC(=O)N(C)C)cc3oc2=O)c1Cl [Compound 274] , I found its AUC(0-t) recorded as 392

Looking up CNS(=O)(=O)Nc1cccc(Cc2c(CN(C)C)c3ccc(OC(=O)N(C)C)cc3oc2=O)c1Br [Compound 248] , I found its AUC(0-t) recorded as 19.5

Looking up CCN(C)Cc1c(Cc2cccc(NS(=O)(=O)NC)c2F)c(=O)oc2cc(OC(=O)N(C)C)c(F)cc12 [Compound 238] , I found its AUC(0-t) recorded as 416

For the 3 molecules below, give their AUC(0-t) values.
1. CCS(=O)(=O)Nc1cccc(Cc2c(CN3CCNCC3)c3cc(Cl)c(OC(=O)N(C)C)cc3oc2=O)c1Cl [Compound 257, hydrochloride]
2. CCN(C)Cc1c(Cc2cccc(NS(=O)(=O)NC)c2Cl)c(=O)oc2cc(OC(=O)N(C)C)ccc12 [Compound 245]
3. CNS(=O)(=O)Nc1cccc(Cc2c(CN3CCNCC3)c3cc(Cl)c(OC(=O)N(C)C)cc3oc2=O)c1Cl [Compound 256, hydrochloride]

Output line:
1: 103; 2: 154; 3: 19.5

// provenance: patent US20250179057A1
